Biological target: T1, MLL3_(PHD5-6)_(1008–1144) (human, UniProt Q8NEZ4 1008-1144)
T1 construct: MLL3 (KMT2C), human, residues 1008–1144; also called PHD5–6 of MLL3; source: E. coli BL21 (DE3) Codon plus RIL, purified (Ni-NTA, thrombin, HiTrap Q, Superdex75); not shown: GST, N-terminal, cleaved; His tag, N-terminal, cleaved
T1 sequence (looked up): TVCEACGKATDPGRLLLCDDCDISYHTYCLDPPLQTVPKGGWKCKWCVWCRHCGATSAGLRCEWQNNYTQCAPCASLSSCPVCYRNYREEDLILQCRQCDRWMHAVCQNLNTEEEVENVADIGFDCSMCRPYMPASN
Test: ITC; peptide (1–2 mM) in the syringe injected into protein (50–100 μM) in the cell; 25 °C; 20 mM Tris pH 7.5, 150 mM NaCl; single-site binding model
Conditions: both partners purified
measurement name: Kd (µM)
Give the value, in units of µM, as a plain number.

# input // Kd lookup, key: GKGGAKRHRKV (peptide, UniProt P62805 12-22, looked up, histone H4, residues 11–21; also called H4H18 peptide; source: synthetic peptide (Peptide 2.0 Inc.)) [histone H4 peptide H4_(11–21)]
# output 83
